# Subject Of Test: B. duncani DHFR-TS (Babesia duncani, UniProt A0AAD9UQZ8)
# Sequence (A0AAD9UQZ8 entry or part of it): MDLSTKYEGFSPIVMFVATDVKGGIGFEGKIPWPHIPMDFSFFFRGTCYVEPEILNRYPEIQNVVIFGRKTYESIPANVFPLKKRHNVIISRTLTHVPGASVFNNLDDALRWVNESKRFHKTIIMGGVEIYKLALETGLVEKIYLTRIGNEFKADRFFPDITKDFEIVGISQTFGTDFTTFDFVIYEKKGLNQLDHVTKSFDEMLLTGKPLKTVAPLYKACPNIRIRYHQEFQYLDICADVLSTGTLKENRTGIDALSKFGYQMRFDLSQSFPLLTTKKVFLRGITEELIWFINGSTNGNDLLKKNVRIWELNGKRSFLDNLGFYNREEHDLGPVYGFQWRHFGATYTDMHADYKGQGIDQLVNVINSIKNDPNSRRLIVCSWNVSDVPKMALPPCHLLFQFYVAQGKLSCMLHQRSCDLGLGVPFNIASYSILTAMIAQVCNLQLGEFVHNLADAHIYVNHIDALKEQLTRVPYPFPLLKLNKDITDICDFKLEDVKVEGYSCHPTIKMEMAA
# Procedure Text: Enzyme inhibition assay: DHFR activity of purified DHFR-TS
# Particulars: 0.1 µM enzyme, 300 µM DHF, 300 µM NADPH
Measure Name: EC50 (nM)
State the answer as a number, implicitly in nM.

Record summary for CC1(C)NC(=N)NC(=N)N1OCCCOc1ccc(OC(F)(F)F)cc1Cl : reported EC50 = 1

* * *

# Test system: B. duncani (WA-1)
# Procedure Text: In vitro growth inhibition of B. duncani in human erythrocytes (SYBR Green-I)
# Format: cell-based, Babesia duncani
# Particulars: analogs compared within screening; 2-chloro, 4-trifluoromethoxy series or terminal aryl heterocycles
Measure Name: activity against B. duncani, structure-activity relationship

NC1=NC(c2cccnc2)N(OCCCOc2ccc(OC(F)(F)F)cc2Cl)C(N)=N1 (stereo not shown) :: increased activity
CC1(C)N=C(N)N=C(N)N1OCCCOc1ccc(-n2cncn2)cc1 :: beneficial
CC1(C)N=C(N)N=C(N)N1OCCCOc1ccc(-c2nnnn2C(C)(C)C)cc1 :: beneficial
NC1=NC(c2ccc(F)cc2)N(OCCCOc2ccc(OC(F)(F)F)cc2Cl)C(N)=N1 (stereo not shown) :: increased activity

* * *

# Tested on: P. falciparum HB3
# Procedure Text: In vitro growth inhibition of P. falciparum HB3 (SYBR Green-I)
# Format: cell-based, Plasmodium falciparum
# Particulars: Plasmodium falciparum, HB3, 72 h, DFS20 medium, read-out: PfHB3 (IC50 in nM)
Measure Name: IC50

Record summary for CC1(C)N=C(N)N=C(N)N1OCCCOc1ccc(-n2cncn2)cc1 [JPC-1059] : reported IC50 = 0.3 nM

Record summary for NC1=NC(c2ccc(F)cc2)N(OCCCOc2ccc(OC(F)(F)F)cc2Cl)C(N)=N1 (stereo not drawn) [JPC-3680] : reported IC50 = 2.1 nM

Record summary for CCC(C)C1(C)N=C(N)N=C(N)N1OCCCOc1cc(Cl)c(Cl)cc1Cl (stereo not drawn) [JPC-2748] : reported IC50 = 0.41 nM

Record summary for CC1(C)N=C(N)N=C(N)N1OCCCOc1ccc(-c2nnnn2C(C)(C)C)cc1 [JPC-3671] : reported IC50 = 0.4 nM

Record summary for CC1(C)N=C(N)N=C(N)N1OCCCOc1ccccc1OC(F)(F)F [JPC-2060] : reported IC50 = ~0.6 nM

Record summary for COc1ccc(OCCCON2C(N)=NC(N)=NC2(C)C)cc1 [JPC-1044] : reported IC50 = 0.42 nM

Record summary for CC1(C)N=C(N)N=C(N)N1OCCCOc1ccc(Cl)cc1Cl [JPC-210] : reported IC50 = 0.4 nM

Record summary for CC1(C)N=C(N)N=C(N)N1OCCCOc1ccc(Cl)c(C#N)c1 [JPC-2053] : reported IC50 = 0.75 nM

Record summary for NC1=NC(c2cccnc2)N(OCCCOc2ccc(OC(F)(F)F)cc2Cl)C(N)=N1 (stereo not drawn) [JPC-3681] : reported IC50 = 0.8 nM

* * *

# Subject Of Test: B. microti DHFR-TS (Babesia microti)
# Sequence (A0A1R4AAV1 entry or part of it): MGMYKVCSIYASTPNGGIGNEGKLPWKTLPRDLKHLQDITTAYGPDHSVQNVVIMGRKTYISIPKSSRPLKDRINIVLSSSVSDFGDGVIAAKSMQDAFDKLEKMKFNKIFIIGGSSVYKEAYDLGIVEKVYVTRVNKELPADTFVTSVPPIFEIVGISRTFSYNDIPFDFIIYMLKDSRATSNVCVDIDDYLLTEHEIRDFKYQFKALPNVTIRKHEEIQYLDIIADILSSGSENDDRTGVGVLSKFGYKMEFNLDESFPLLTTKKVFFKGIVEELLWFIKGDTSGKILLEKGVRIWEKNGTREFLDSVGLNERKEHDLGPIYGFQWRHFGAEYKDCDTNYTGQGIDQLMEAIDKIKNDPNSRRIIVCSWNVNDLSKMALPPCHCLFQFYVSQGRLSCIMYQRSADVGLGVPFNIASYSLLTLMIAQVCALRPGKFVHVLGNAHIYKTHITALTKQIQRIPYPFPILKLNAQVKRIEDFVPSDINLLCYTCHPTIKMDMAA
# Procedure Text: Enzyme inhibition assay: DHFR activity of purified DHFR-TS
# Particulars: 0.1 µM enzyme, 300 µM DHF, 300 µM NADPH
Measure Name: pEC50
API: returns pEC50 as number; meaning -log10 of concentration in mol/L.

Param item: CC1(C)NC(=N)NC(=N)N1OCCCOc1ccc(OC(F)(F)F)cc1Cl ; param system: B. microti DHFR-TS (Babesia microti); output pEC50: 7.83
